The following molecules are shown together with reported Population Mitochondria Different-Phenotype (%) values.
System: U2OS
test.details: Multiplex assay against U2OS
Assay type: toxicity, cell-based
run.parameters: human, 48 h, 10 µM, compound concentration 10 uM, replicate 2

molecule	result
O=C(Nc1ccc(Cl)cc1)Nc1cccc(-c2cccc(N3CCCC3)n2)c1	25%
O=C(Nc1ccc(-n2nc(-c3cccnc3)cc2C(F)(F)F)cn1)c1ccc(-c2ccccc2)c(F)c1	11%
CN1C2CCC1CC(OC(c1ccc(F)cc1)c1ccc(F)cc1)C2.Cl (stereo not drawn)	56%
COCC(=O)NC/C=C/c1ccc2ncnc(Nc3ccc(Oc4ccc(C)nc4)c(C)c3)c2c1	96%
Cc1cn(-c2cc(NC(=O)c3ccc(C)c(Nc4nccc(-c5cccnc5)n4)c3)cc(C(F)(F)F)c2)cn1	20%

Ask | Population Mitochondria Different-Phenotype (%) lookup needed for CCn1c(=O)c(-c2ccc(-c3cncs3)cc2Cl)cc2cnc(Nc3ccc(N4CCN(C)CC4)cc3)nc21 , thanks.
Reply | 24%

Ask | Population Mitochondria Different-Phenotype (%) lookup needed for CCCn1c(=O)c2[nH]c(-c3cnn(Cc4cccc(C(F)(F)F)c4)c3)nc2n(CC)c1=O , thanks.
Reply | 13%

Ask | Population Mitochondria Different-Phenotype (%) lookup needed for C=C1/C(=C\C=C2/CCC[C@]3(C)[C@@H]([C@H](C)/C=C/[C@H](C)C(C)C)CC[C@@H]23)C[C@@H](O)C[C@@H]1O , thanks.
Reply | 22%

====

The following compounds are shown together with reported Population Membrane Permeable-Phenotype (%) values.
System: Fibroblast
test.details: Multiplex assay against human fibroblast
Format: toxicity, cell-based
run.parameters: 12 h, 1 µM, compound concentration 1 uM, replicate 2
# output: bare number, implied unit %

compound	measured.target	quantitative.readout
Cn1nc(C(F)(F)F)cc1-c1cnc(N2CCc3cc(S(=O)(=O)Nc4c(F)cc(Cl)cc4F)cc(N4CCCC4=O)c32)nc1 [TP-020]	Fibroblast	45

Ask | Population Membrane Permeable-Phenotype (%) lookup needed for CCc1cccc(CC)c1NC(=O)c1nn(C)c2c1CCc1cnc(Nc3ccc(N4CCN(C)CC4)cc3OC)nc1-2 , thanks.
Reply | 0

Ask | Population Membrane Permeable-Phenotype (%) lookup needed for CNC(=O)c1ccc(Nc2nc(OC3CCCC3)c3c(-c4ccc5nc(C)oc5c4)c[nH]c3n2)c(OC)c1 , thanks.
Reply | 45

Ask | Population Membrane Permeable-Phenotype (%) lookup needed for COc1ccc(-c2ccc3c(N4CCOCC4)nc(N4C[C@@H](C)O[C@@H](C)C4)nc3n2)cc1CO [Ku-0063794] , thanks.
Reply | 17

====

System: HEK-293T
test.details: Multiplex assay against HEK293T
Assay type: toxicity, cell-based
run.parameters: human, 48 h, 1 µM, compound concentration 1 uM, replicate 1
observed.property: Total Cell Count
Kindly provide the number alone.

Examples with their reported Total Cell Count follow.
molecule	measured.target	observed.property	quantitative.readout
O=C(Nc1ccc(-n2nc(-c3cccnc3)cc2C(F)(F)F)cn1)c1ccc(-c2ccccc2)c(F)c1	HEK-293T	Total Cell Count	166
CCc1cccc(CC)c1NC(=O)c1nn(C)c2c1CCc1cnc(Nc3ccc(C(=O)NC4CCN(C)CC4)cc3OC(F)(F)F)nc1-2	HEK-293T	Total Cell Count	417
CN(C)C(=O)C(CCN1CCC(O)(c2ccc(Cl)cc2)CC1)(c1ccccc1)c1ccccc1.Cl [LOPERAMIDE HYDROCHLORIDE]	HEK-293T	Total Cell Count	322
CCn1c(=O)c(-c2ccc(-c3cncs3)cc2Cl)cc2cnc(Nc3ccc(N4CCN(C)CC4)cc3)nc21	HEK-293T	Total Cell Count	308
CCOc1cc2ncc(C#N)c(Nc3ccc(OCc4ccccn4)c(Cl)c3)c2cc1NC(=O)/C=C/CN(C)C	HEK-293T	Total Cell Count	277

Ask | Total Cell Count lookup needed for Cl.Oc1ccc2c3c1O[C@H]1c4[nH]c5c(c4C[C@@]4(O)[C@@H](C2)N(CC2CC2)CC[C@]314)C[C@@]1(O)[C@H]2Cc3ccc(O)c4c3[C@@]1(CCN2CC1CC1)[C@H]5O4 , thanks.
Reply | 368

Ask | Total Cell Count lookup needed for CCCn1c(=O)c2[nH]c(-c3cnn(Cc4cccc(C(F)(F)F)c4)c3)nc2n(CC)c1=O , thanks.
Reply | 303

Ask | Total Cell Count lookup needed for O=C(Cc1ccc(-c2ccc(OCCN3CCOCC3)cc2)cn1)NCc1ccccc1 , thanks.
Reply | 187

Ask | Total Cell Count lookup needed for CCOc1cc(C(=O)N2CCC(N3CCN(C)CC3)CC2)ccc1Nc1ncc2c(n1)N(C1CCCC1)c1ccccc1C(=O)N2C , thanks.
Reply | 400

Ask | Total Cell Count lookup needed for CNc1cc(Oc2cc(C(=O)Nc3cc(N4CCN(C)CC4)cc(C(F)(F)F)c3)ccc2C)ncn1 , thanks.
Reply | 297

Ask | Total Cell Count lookup needed for S=C(NCCCc1c[nH]cn1)NCCCN(Cc1ccc(Cl)c(Cl)c1)c1ccc(Br)cn1 , thanks.
Reply | 320

Ask | Total Cell Count lookup needed for Cc1ccc(C(=O)Nc2cccc(C(F)(F)F)c2)cc1Nc1nc(-c2cccnc2)nc2c1cnn2C , thanks.
Reply | 371

Ask | Total Cell Count lookup needed for COc1cc(N2CCN(C)CC2)ccc1Nc1ncc2c(n1)N(C)c1ccccc1C(=O)N2C , thanks.
Reply | 613

Ask | Total Cell Count lookup needed for Cl.O=c1c2cccn2c2ccccc2n1CCCN1CCC(c2ccc(Cl)cc2)CC1 , thanks.
Reply | 453

Ask | Total Cell Count lookup needed for CCCS(=O)(=O)c1nc(NC2CC2)cc(-c2ccc3c(ccn3C3CC(C)(C)NC(C)(C)C3)c2)n1 , thanks.
Reply | 417

Ask | Total Cell Count lookup needed for CN1CCC(=C2c3ccccc3CC(=O)c3sccc32)CC1.O=C(O)/C=C/C(=O)O [KETOTIFEN FUMARATE] , thanks.
Reply | 369

Ask | Total Cell Count lookup needed for O=C(Nc1ccc(-c2ccnc(Nc3ccc(N4CCOCC4)cc3)n2)cc1)[C@@H]1CCCN1 , thanks.
Reply | 482
